- Tested on: OVCAR-3 ovarian
- Assay details: NCI-60 one-dose screen, 48 h
- Condition details: 10 µM unless noted
Compounds without any hit were thinned out: in the full panel of roughly 83,000, 20% have a hit. Calls of active or inactive are those of the source. The calls were made as follows: active = growth percent below 10; inactive = the rest.
Outcome codes: active, inactive

# Compound, Class
rows = [
    ("COc1ccc(NC2=C(I)C(=O)C(C)=C(C)C2=O)cc1", "active"),
    ("COc1ccc(-c2nc3ccc(-c4nnc(SCC(=O)Nc5ccc(/C(C)=N\\O)cc5)o4)cc3[nH]2)cc1", "inactive"),
    ("Cc1nc(N)ncc1-c1ccc2ncnc(N3CCc4cc(F)c(Cl)cc43)c2c1", "inactive"),
    ("CCCCCCCCc1ccc(C(=O)Nc2cccc(O)c2)cc1", "inactive"),
    ("CC(C)(C)C(=O)c1c2c(c3ccc4c5ccccc5ccc4n13)C(=O)c1ccccc1C2=O", "inactive"),
    ("CN(C)c1nc(NCCNS(=O)(=O)c2ccc(C3=Nc4c(N)nc(N)nc4NC(c4ccc(Cl)cc4)C3)cc2)nc(N2CCOCC2)n1 (centres undefined)", "inactive"),
    ("FC(F)(F)c1cc2c(Cl)ncnc2n1CCN1CCCCC1", "active"),
    ("Cc1cn(-c2cc(NC(=O)c3ccc(C)c(-n4cc(-c5cnc6cccnn56)nn4)c3)cc(C(F)(F)F)c2)cn1", "inactive"),
    ("CC(C)C[C@H](NC(=O)[C@@H]1CCCCCCCCCCC(=O)N[C@@H](CC(=O)N2CCC[C@@H]2C2CCCC2)C(=O)N1)B(O)O", "active"),
]

* * *

- System: SK-OV-3 ovarian
- Assay details: NCI-60 one-dose screen, 48 h (100 = growth as untreated, 0 = no growth, -100 = all killed)
- Condition details: 10 µM unless noted
This is part of a sample that, as a whole, favours compounds with a hit. Of some 83,000 tested, about 20% had one in any assay. Activity calls are given as the source filed them. The calls were made as follows: active = growth percent below 10; inactive = the rest.
Measured property: growth

# Molecule, Measured property, Observed value
records = [
    ("COc1cc(CNC(=O)C[C@H](C)CCC=C(C)C)ccc1OCc1cn(-c2cccc(C(F)(F)F)c2)nn1", "growth", "89% (inactive)"),
    ("COc1cccc(/C=C/c2nc3ccccc3c(=O)n2CC(=O)Nc2ccccc2)c1", "growth", "54.2% (inactive)"),
    ("O=C1Nc2ccccc2/C1=C\\c1ccc(OCC(=O)c2ccc(Br)cc2)cc1", "growth", "101% (inactive)"),
    ("N#CC1=C(c2cccs2)Nc2c(c(-c3ccccc3)nn2-c2ccccc2)C12C(=O)Nc1ccc(Br)cc12 (centres undefined)", "growth", "-0.147% (active)"),
    ("CC1=C(C(=O)Nc2ccccc2)C(c2cccc3ccccc23)n2c(nc3ccccc32)N1 (centres undefined)", "growth", "-2.39% (active)"),
    ("CCC(=O)c1cc(C(=O)OC)c2ccc3c4ccccc4ccc3n12", "growth", "122% (inactive)"),
    ("Cc1cc(N=C(N)c2ccccc2)ccc1OCCCCCCCCn1ccnc1", "growth", "16.7% (inactive)"),
    ("Nc1cc(-c2c[nH]c3ccc(Br)cc23)nc2cc(-c3c[nH]c4ccccc34)nn12", "growth", "-43.6% (active)"),
    ("CN1C(=O)C2(C(C#N)=C(c3ccc(Cl)cc3)Nc3c2c(-c2ccccc2)nn3-c2ccccc2)c2ccccc21 (centres undefined)", "growth", "99.2% (inactive)"),
]
